Reported pIC50 values follow for various molecules
# target desc: UniProt P03951
# Sequence (P03951 388-625): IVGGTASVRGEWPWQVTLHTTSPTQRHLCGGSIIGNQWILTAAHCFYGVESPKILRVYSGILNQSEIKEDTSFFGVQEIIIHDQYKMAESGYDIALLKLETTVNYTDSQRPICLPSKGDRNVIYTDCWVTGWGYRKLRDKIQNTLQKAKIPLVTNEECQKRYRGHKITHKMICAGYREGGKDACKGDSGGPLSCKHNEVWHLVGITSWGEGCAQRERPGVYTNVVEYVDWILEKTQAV
# Sequence (P03951 19-387 partner): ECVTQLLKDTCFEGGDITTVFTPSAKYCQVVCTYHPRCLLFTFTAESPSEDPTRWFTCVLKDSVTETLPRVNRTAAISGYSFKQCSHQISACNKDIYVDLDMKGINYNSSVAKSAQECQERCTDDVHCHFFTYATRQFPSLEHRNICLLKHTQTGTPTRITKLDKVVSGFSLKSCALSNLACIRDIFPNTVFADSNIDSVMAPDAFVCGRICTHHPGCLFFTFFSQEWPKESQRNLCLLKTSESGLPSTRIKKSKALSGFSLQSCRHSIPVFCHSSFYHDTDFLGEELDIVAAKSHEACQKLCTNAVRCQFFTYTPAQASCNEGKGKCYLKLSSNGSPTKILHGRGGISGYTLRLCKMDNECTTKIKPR
# method: Factor XIa enzyme activity (chromogenic substrate S-2366)
# Type: biochemical
# conditions: Table 2, comparison with comparative compounds; read-out: In vitro FXIa inhibitory activity IC50
Quick note: pIC50 means taking -log10 of the concentration in moles per liter.

[[record]]
molecule = "COC(=O)Nc1ccc(-c2[nH]c([C@H](Cc3ccccc3)NC(=O)CCc3cc(Cl)ccc3-n3cnnn3)nc2Cl)cc1 [Comp Ex 1, reference compound]"
target_desc = "UniProt P03951"
observed_value = 8.44


(Q) Query pIC50 for COC(=O)Nc1ccc(-c2cnc(C3CCc4nc(-c5cc(Cl)ccc5-n5cnnn5)cc(=O)n43)[nH]2)cc1 (stereo not drawn)
(A) 8.19
